The measurements presented in this section are drawn from ChEMBL document CHEMBL3351808.

molecular target: Nuclear factor NF-kappa-B complex (Homo sapiens) (UniProt Q00653+P19838+Q04206); experiment: Inhibition of NFkappaB (unknown origin) expressed in LPS-stimulated HEK293-NF-kappaB-luc cells assessed as luminescence signals measured by relative light units at 500 ug/mL pre-treated for 4 hrs before LPS challenge for 24 hrs by luciferase assay; assay type: cell-based
Sequence (P19838 whole entry, looked up): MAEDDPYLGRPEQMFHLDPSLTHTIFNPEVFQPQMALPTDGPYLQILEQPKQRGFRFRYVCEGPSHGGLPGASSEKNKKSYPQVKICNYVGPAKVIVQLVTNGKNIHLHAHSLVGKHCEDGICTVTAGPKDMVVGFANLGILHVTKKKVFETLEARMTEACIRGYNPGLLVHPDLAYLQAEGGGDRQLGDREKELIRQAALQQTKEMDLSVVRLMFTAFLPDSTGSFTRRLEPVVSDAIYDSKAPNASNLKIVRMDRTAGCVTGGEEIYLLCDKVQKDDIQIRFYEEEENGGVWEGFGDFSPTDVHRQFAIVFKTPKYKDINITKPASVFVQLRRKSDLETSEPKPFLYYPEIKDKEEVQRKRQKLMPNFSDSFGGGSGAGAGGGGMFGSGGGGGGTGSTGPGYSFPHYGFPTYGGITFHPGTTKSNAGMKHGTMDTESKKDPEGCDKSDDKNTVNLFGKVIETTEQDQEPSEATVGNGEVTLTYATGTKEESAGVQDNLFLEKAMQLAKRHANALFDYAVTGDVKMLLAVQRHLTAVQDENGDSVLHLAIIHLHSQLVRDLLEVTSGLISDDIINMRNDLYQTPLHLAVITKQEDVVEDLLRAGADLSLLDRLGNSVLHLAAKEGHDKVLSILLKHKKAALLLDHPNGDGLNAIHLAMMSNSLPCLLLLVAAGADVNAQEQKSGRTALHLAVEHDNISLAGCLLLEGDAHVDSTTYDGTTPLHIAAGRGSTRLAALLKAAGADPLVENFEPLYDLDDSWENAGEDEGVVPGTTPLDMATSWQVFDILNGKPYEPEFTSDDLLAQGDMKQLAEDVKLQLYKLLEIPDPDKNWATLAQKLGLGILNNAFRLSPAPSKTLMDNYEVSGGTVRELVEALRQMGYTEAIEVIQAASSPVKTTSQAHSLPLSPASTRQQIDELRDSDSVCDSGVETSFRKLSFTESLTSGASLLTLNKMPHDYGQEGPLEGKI
Sequence (Q00653 whole entry, looked up): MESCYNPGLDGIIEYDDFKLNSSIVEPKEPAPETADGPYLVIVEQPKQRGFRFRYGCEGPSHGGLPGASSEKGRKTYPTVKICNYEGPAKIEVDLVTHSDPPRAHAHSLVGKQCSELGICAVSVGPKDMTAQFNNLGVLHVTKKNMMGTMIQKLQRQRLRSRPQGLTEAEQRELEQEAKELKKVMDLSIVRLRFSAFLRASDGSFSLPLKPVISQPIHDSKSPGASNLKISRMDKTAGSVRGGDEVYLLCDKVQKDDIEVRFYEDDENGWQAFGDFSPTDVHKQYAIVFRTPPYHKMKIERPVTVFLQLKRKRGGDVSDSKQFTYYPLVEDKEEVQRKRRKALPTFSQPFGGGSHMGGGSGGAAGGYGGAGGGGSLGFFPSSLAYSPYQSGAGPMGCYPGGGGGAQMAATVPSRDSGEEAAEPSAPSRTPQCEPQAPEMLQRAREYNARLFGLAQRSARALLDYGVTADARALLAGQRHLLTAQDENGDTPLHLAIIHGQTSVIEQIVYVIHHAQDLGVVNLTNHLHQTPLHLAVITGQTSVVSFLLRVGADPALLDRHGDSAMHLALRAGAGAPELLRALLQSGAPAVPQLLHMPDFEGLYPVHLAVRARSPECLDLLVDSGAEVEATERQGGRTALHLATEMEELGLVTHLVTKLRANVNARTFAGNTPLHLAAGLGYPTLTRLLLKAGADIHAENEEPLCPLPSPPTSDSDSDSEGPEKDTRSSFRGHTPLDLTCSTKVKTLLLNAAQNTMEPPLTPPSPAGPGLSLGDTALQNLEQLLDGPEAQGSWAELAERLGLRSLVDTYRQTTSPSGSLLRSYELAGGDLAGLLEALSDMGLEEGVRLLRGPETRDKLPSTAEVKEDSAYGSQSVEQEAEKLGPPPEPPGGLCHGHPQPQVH
Sequence (Q04206 whole entry, looked up): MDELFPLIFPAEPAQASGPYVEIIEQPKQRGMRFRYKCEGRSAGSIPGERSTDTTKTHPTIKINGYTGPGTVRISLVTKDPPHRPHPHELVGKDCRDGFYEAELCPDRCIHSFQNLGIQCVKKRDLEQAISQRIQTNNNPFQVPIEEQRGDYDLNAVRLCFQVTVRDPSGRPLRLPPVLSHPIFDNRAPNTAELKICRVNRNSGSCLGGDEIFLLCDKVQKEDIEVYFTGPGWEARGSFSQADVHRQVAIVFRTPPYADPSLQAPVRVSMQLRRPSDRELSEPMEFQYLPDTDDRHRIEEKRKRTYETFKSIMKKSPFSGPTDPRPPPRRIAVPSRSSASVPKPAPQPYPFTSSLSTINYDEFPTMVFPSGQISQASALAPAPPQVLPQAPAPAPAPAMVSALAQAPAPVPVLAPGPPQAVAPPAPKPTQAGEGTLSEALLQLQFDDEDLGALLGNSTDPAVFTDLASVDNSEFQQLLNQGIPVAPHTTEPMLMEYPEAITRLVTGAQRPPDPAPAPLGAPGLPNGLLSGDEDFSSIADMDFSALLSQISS

MOL_SMILES: C[C@]12CCC(=O)C=C1CC[C@@H]1[C@@H]2[C@@H](O)C[C@@]2(C)[C@H]1CC[C@]2(O)C(=O)CO
RLU: 0.64
--
MOL_SMILES: CC1(C)CC[C@]2(C(=O)O[C@@H]3O[C@H](CO)[C@@H](O)[C@H](O)[C@H]3O)[C@H](O)C[C@]3(C)C(=CC[C@@H]4[C@@]5(C)CC[C@H](O[C@@H]6O[C@H](CO)[C@@H](O)[C@H](O)[C@H]6O)C(C)(C)[C@@H]5CC[C@]43C)[C@@H]2C1
RLU: 0.5
--
MOL_SMILES: CC1(C)CC[C@]2(C(=O)O[C@@H]3O[C@H](CO)[C@@H](O)[C@H](O)[C@H]3O)CC[C@]3(C)C(=CC[C@@H]4[C@@]5(C)CC[C@H](O[C@@H]6O[C@H](CO)[C@@H](O)[C@H](O)[C@H]6O[C@@H]6O[C@H](CO)[C@@H](O)[C@H](O)[C@H]6O)C(C)(C)[C@@H]5CC[C@]43C)[C@@H]2C1
RLU: 0.59
